From: the supplement of paper PMC6555819

System: LXRb:RXRa (NR concentration 270 nM, RXRa partner concentration 90 nM)
Assay Protocol: PBM binding z-score (relative to random genomic background probes); higher = stronger binding; sequences stand for … in GC…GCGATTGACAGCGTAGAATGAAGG
Output class 1 for PBM binding z-score not less than 1; output class 0 otherwise.

Illustrative cases are given below, each with its answer.
ACTAGTTAGTCAGCTGAGGTCACACACAATTCGG ... class 1
ACTAGCAGGCCAAGGTTGGGTCACTCAAACAAAG ... class 0
ATCGAAAGGTCGAGGTGAGTGTAGAGAAAGGGAA ... class 1
CCGACTGGGGCAAAAAGGTTACCATACCATCCGG ... class 1
CCTATTAGTTGACCATAAGGGCAAACGAAGCTCG ... class 0
CTGGAAAGGTCGTGCTCAGGTGAGTATACCAAAC ... class 1
CCTACTGGGCCAAAGGTCATTGATTCCAATGCTC ... class 1
ATACCAAGGTGATCATGAGGTCGTTGATACTAAC ... class 1

Determine whether measured PBM binding z-score meets or exceeds 1 for ACAGACAGGTGATGAACGTAACTCAGGCTATCAT
class 0

Quick check, PBM binding z-score >= 1? CCTTACGGGTCACGGACAGGTTATAGCATTTGGA
class 1

Hi team, for ATATGTAGGTTAGCTCGGGTCATTCAGACTAGGC , is the recorded PBM binding z-score at or above 1?
class 1
